- Assay: compound effects on hepatocellular carcinoma cell viability – HepG2, calcein-AM fluorescence, 48 h, basal, profiling panel (AID 1164); note: test concentration not given here
- Test parameters: higher = more signal
z-score below -0.2 gives 0.0; z-score at or above it gives 1.0.

Check out these entries, answers already filled in.
>  <Molecule>
COc1cccc(C[C@H]2C[C@@H](CO[Si](C(C)C)(C(C)C)C(C)C)N3C(=O)[C@]4(C(C)=O)O[C@]23[C@H]2C(=O)N(C)C(=O)[C@H]24)c1

>  <Classification>
0.0

$$$$
>  <Molecule>
CN(C)C(=O)[C@]1(Cc2ccccc2N=[N+]=[N-])N=C(c2ccc(OCCCO)cc2)O[C@@H]1c1ccccc1CN=[N+]=[N-]

>  <Classification>
0.0

$$$$
>  <Molecule>
CN(C)C(=O)[C@@]1(CCS(=O)(=O)c2ccccc2)N=C(c2ccc(OCCCO)cc2)O[C@H]1c1ccccc1CN=[N+]=[N-]

>  <Classification>
0.0

$$$$
>  <Molecule>
C=C(COC)C(=O)CC[C@H](OC(=O)c1ccccc1-c1ccccc1C(=O)O)c1ccc(CO)o1

>  <Classification>
0.0

$$$$

Determine whether measured z-score meets or exceeds -0.2 for `Cc1ccc(F)cc1S(=O)(=O)N[C@@H]1CCN(C(=O)c2ccc(OC(C)C)cc2)C1`
0.0

Determine whether measured z-score meets or exceeds -0.2 for CC(C)c1ccc(NN2C(C(O)c3cccs3)C=CC3C(=O)N(c4ccccc4)C(=O)C32)cc1 (configuration not stated)
0.0

Determine whether measured z-score meets or exceeds -0.2 for `CCOC(=O)C[C@H]1[C@H](OC(=O)c2cc3ccccc3oc2=O)[C@@H](NC(=O)c2ccc3ccccc3n2)c2cc(OCCCO)ccc2N1C(=O)c1ccc2ccccc2n1`
1.0

Sourced from PubChem BioAssay
